system: TRPC4 beta (transient receptor potential cation channel C4), mouse; test: potentiation of DAMGO EC20 TRPC4 response – cell-based, Fluo-4, HEK293 TRPC4beta/mu-opioid, confirmation (AID 2555); conditions: DAMGO EC20, Fluo-4 calcium flux, at 10 µM
Activity calls are given as the source filed them.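 Rule for the calls: active = primary screen hit whose calcium fluorescence ratio, in both repeats, exceeds the weak agonist control mean by 3 SD; inactive = the rest.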
Outcome field: choose from active, inactive

> print(dat)
                                   compound  classification
1  CC(=O)OCCCN1C(=O)c2cccc3cc(Br)cc(c23)C1=O        inactive

## Input How did this test come out for OCCNCc1cc(Br)ccc1OCc1ccc(Cl)cc1Cl ?
## Output inactive

## Input Field: outcome | Entry: CC(C)(C)Cc1nc2ccccc2n1CCc1ccccc1
## Output inactive

---

biological target: Short transient receptor potential channel 4 (Mus musculus); assay: calcium flux activators in TRPC4/5HT1a cells, counter-screen for TRPC4 activator project, cell-based, second counter screen, HEK293 TRPC4/5HT1a, Fluo-4 (AID 434977); settings: Fluo-4 calcium flux, at 10 µM
Active and inactive are the calls of the source.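 Rule for the calls: active = calcium signal rise above buffer-control mean plus 5 SD in both duplicates, and also a hit in the primary screen; inactive = the rest.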
Tick one outcome: active, inactive

Some solved cases for reference:
> print(dat)
                                   molecule                              assay.system  classification
1     Cc1cc(Nc2ccc3c(c2)OCCO3)c2cccc(C)c2n1  Short transient receptor potential channel 4 (Mus musculus)        inactive
2  COc1ccc(/C=C2/SC(=S)N(CCCC(=O)Nc3ccccc3C(=O)O)C2=O)cc1  Short transient receptor potential channel 4 (Mus musculus)        inactive
3       O=C(CN1CCCCCC1)N1c2ccccc2Sc2ccccc21  Short transient receptor potential channel 4 (Mus musculus)        inactive
4      Cc1ncsc1CCOC(=O)C12CC3CC(CC(C3)C1)C2  Short transient receptor potential channel 4 (Mus musculus)        inactive
5     Clc1ccc2nc(N3CCNCC3)nc(-c3ccccc3)c2c1  Short transient receptor potential channel 4 (Mus musculus)          active

## Input Field: outcome | Entry: CCN(CCO)Cc1csc2ccc(Br)cc12
## Output inactive

## Input For CC(=O)Oc1ccc(/C=C(\NC(=O)c2ccco2)C(=O)NCc2ccccc2)cc1 , what call appears in the results of this test?
## Output inactive

## Input Please share the test call associated with Oc1ccc(-c2[nH]ncc2-c2ccc(Br)cc2)c(O)c1 .
## Output inactive

---

tested on: TRPC4 beta (transient receptor potential cation channel C4), mouse; test: potentiation of DAMGO EC20 TRPC4 response – cell-based, Fluo-4, HEK293 TRPC4beta/mu-opioid, confirmation (AID 2555); conditions: DAMGO EC20, Fluo-4 calcium flux, at 10 µM
Activity calls are given as the source filed them.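 The calls were made as follows: active = primary screen hit whose calcium fluorescence ratio, in both repeats, exceeds the weak agonist control mean by 3 SD; inactive = the rest.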
Pick one and only one: active, inactive

Illustrative cases are given below, each with its answer.
> print(dat)
                                   molecule  classification
1  Cc1csc2c(N3CCN(C(=O)Nc4ccccc4)CC3)ncnc12        inactive
2  N=c1n(Cc2ccccc2)c2ccccc2n1CC(O)COc1ccccc1 (configuration not stated)        inactive

## Input What was the test verdict on O=C1Nc2cc(C(=O)NCCCN3CCOCC3)ccc2S/C1=C/c1ccccc1F ?
## Output inactive

## Input # lookup: test call for Nc1nn2c(C(F)(F)F)cc(=O)[nH]c2c1N=Nc1cccc(F)c1
## Output inactive

## Input Could you please tell me the result logged for CC(C)c1nc(CNC(=O)CC2C(=O)NCCN2Cc2ccc(F)cc2Cl)cs1 (configuration not stated) in this assay?
## Output inactive

## Input I'd appreciate the recorded outcome for CCCN(CCC)CCCNC(=O)CNC(=O)c1nn(-c2ccc(OC)cc2)c(=O)c2ccccc12 from this test.
## Output inactive

## Input Tell me the assay call for CCOCCCNCc1cc(Br)ccc1OCc1ccccc1 please.
## Output inactive

## Input How did this test come out for CN(Cc1ccco1)C(=O)Cn1ncc2c([nH]c3ccccc32)c1=O ?
## Output active

## Input // param item: CCOC(=O)C1=NNC(C(=O)c2ccc(Cl)cc2)C1c1ccc(OC)cc1 (configuration not stated) ; yields the recorded call
## Output inactive

## Input Hi team, can someone confirm the assay call for CCN(CC)CCCN(C(=O)c1cccs1)c1nc(-c2ccc(OC)cc2)cs1 ?
## Output inactive

## Input // return assay outcome for COc1nc(N=C(N)N)nc2ccc(C)cc12
## Output inactive

## Input # lookup: test call for CCN(C(=O)c1cnc(NC(C)C)cc1C(F)(F)F)c1ccc(Cl)cc1Cl
## Output inactive

## Input Status in this test for C=CCNC(=S)N1CCN(C2CCCCC2)CC1 ?
## Output active

## Input Record lookup: outcome of this test for CN(CC(=O)Nc1ccc(F)cc1)C(=O)COC(=O)c1ccccc1 ?
## Output active

## Input Hi, do you know how CCc1ccc(OCC(=O)NC2CCCCC2)c(Br)c1 came out in this test?
## Output active

## Input Hey, what did the test say about CN(C)CC(CCC(CN(C)C)C(O)(c1ccccc1)c1ccccc1)C(O)(c1ccccc1)c1ccccc1 (configuration not stated) ?
## Output inactive

## Input Tell me the recorded outcome of this test for CC1(c2ccccc2)CC(C)(C)N(C(=O)C2CCCO2)c2ccccc21 (configuration not stated) .
## Output inactive

## Input Hi, sorry to bother you, what did the test record for Cc1cc(OCC(=O)N2CCCC2)cc(C)c1Cl ?
## Output inactive

## Input Returns: the outcome recorded for O=C(c1cccc(C(=O)N2CCN(c3ccc(F)cc3)CC2)c1)N1CCN(c2ccc(F)cc2)CC1 in this assay.
## Output inactive

## Input Could you kindly confirm the outcome this assay logged for O=C(C[n+]1cc(-c2ccc(Cl)c(Cl)c2)n2c1CCC2)N1c2ccccc2Sc2ccccc21 ?
## Output inactive

## Input How did this test come out for Cc1cccc(NC(=O)CNC(=O)CN2C(=O)NC3(CCCCC3C)C2=O)c1C (configuration not stated) ?
## Output inactive

## Input Status in this test for COc1ccc(NC(C)=O)cc1NC(C)C(=O)Nc1cc(C(F)(F)F)ccc1N1CCOCC1 (configuration not stated) ?
## Output inactive
